Values compiled from ChEMBL document CHEMBL5584309.

method summary: AUC (0 to infinity) in Sprague-Dawley rat at 20 mg/kg, ip measured upto 24 hrs by LC-MS/MS analysis
Format: ADME, organism-based
assay conditions: in vivo
measurement kind: AUC(0-inf)

• Cc1cc(OCCCc2c(C(=O)O)n(CCN3CCOCC3)c3c(-c4ccccc4Cn4cc(CCN(CCN5CCOCC5)S(=O)(=O)c5ccc(F)cc5)c5ccccc54)cccc23)cc(C)c1Cl = 55800 ng·h/mL

###

method summary: MRT (0 to t) in Sprague-Dawley rat at 5 mg/kg, iv measured upto 24 hrs by LC-MS/MS analysis
Format: ADME, organism-based
assay conditions: in vivo
measurement kind: MRT last at 24 h (h)

• Cc1cc(OCCCc2c(C(=O)O)n(CCN3CCOCC3)c3c(-c4ccccc4Cn4cc(CCN(CCN5CCOCC5)S(=O)(=O)c5ccc(F)cc5)c5ccccc54)cccc23)cc(C)c1Cl = 1.14

###

method summary: Metabolic stability in rat liver microsomes assessed as compound remaining measured after 45 mins by LC-MS/MS analysis
Assay type: ADME, Microsome
assay conditions: read-out: Stability
measurement kind: remaining at 0.75 h (%)

* Cc1cc(OCCCc2c(C(=O)O)n(CCN3CCOCC3)c3c(-c4ccccc4Cn4cc(CCN(CCN5CCOCC5)S(=O)(=O)c5ccc(F)cc5)c5ccccc54)cccc23)cc(C)c1Cl | 46
* Cc1nn(C)c(COc2ccc(N3CCN(S(=O)(=O)N(C)C)CC3)cc2)c1-c1cccc2c(CCCOc3cccc4ccccc34)c(C(=O)O)n(CCN3CCOCC3)c12 | 43.7

###

method summary: Half life in Sprague-Dawley rat at 20 mg/kg, ip measured upto 24 hrs by LC-MS/MS analysis
Assay type: ADME, organism-based
assay conditions: in vivo
measurement kind: half-life (h)

- Cc1cc(OCCCc2c(C(=O)O)n(CCN3CCOCC3)c3c(-c4ccccc4Cn4cc(CCN(CCN5CCOCC5)S(=O)(=O)c5ccc(F)cc5)c5ccccc54)cccc23)cc(C)c1Cl: 4.1

###

method summary: Half life in Sprague-Dawley rat at 5 mg/kg, iv measured upto 24 hrs by LC-MS/MS analysis
Format: ADME, organism-based
assay conditions: in vivo
measurement kind: half-life (min)

- Cc1cc(OCCCc2c(C(=O)O)n(CCN3CCOCC3)c3c(-c4ccccc4Cn4cc(CCN(CCN5CCOCC5)S(=O)(=O)c5ccc(F)cc5)c5ccccc54)cccc23)cc(C)c1Cl: 294

###

tested on: Induced myeloid leukemia cell differentiation protein Mcl-1 (Homo sapiens)
Sequence (Q07820 whole entry): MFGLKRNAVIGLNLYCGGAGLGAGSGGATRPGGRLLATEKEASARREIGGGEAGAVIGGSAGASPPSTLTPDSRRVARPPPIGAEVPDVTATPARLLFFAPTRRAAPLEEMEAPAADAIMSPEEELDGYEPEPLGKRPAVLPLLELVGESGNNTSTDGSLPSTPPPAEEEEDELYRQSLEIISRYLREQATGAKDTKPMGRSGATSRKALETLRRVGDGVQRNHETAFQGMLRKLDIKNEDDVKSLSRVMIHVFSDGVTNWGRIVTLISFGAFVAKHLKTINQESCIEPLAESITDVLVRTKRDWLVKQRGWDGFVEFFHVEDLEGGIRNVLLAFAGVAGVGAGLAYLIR
method summary: Binding affinity to Mcl-1 (unknown origin) pre-incubated for 30 mins followed by addition FAM-peptide further incubated for 20 mins by fluorescence polarization-based binding assay
assay conditions: read-out: Ki
pKi: −log10 of the molar value.
Catalogue of compounds with associated pKi
measurement kind: pKi

- Cc1cc(OCCCc2c(C(=O)O)n(CCN3CCOCC3)c3c(-c4ccccc4Cn4cc(CCNCC(N)=O)c5ccccc54)cccc23)cc(C)c1Cl: 5.92
- Cc1cc(OCCCc2c(C(=O)O)[nH]c3c(-c4ccccc4CN(C)c4ccccc4)cccc23)cc(C)c1Cl: 6.19
- Cc1cc(OCCCc2c(C(=O)O)[nH]c3c(-c4ccccc4Cn4ccc5ccccc54)cccc23)cc(C)c1Cl: 6.62
- Cc1cc(OCCCc2c(C(=O)O)n(CCN3CCOCC3)c3c(-c4ccccc4Cn4cc(C)c5ccccc54)cccc23)cc(C)c1Cl: 7.05
- Cc1cc(OCCCc2c(C(=O)O)n(CCN3CCOCC3)c3c(-c4ccccc4Cn4cc(CCNC(=O)c5ccncc5F)c5ccccc54)cccc23)cc(C)c1Cl: 7.26
- Cc1cc(OCCCc2c(C(=O)O)[nH]c3c(-c4c(C(=O)NCC5CC5)nn(C)c4COc4ccccc4)cccc23)cc(C)c1Cl: 6.47
- Cc1cc(OCCCc2c(C(=O)O)n(CCN3CCOCC3)c3c(-c4ccccc4Cn4cc(CCNC(=O)c5ccccc5Br)c5ccccc54)cccc23)cc(C)c1Cl: 7.17
- COc1cccc(OCc2c(-c3cccc4c(CCCOc5cc(C)c(Cl)c(C)c5)c(C(=O)O)[nH]c34)c(C(=O)NCC3CC3)nn2C)c1: 6.43
- Cc1cc(OCCCc2c(C(=O)O)n(CCN3CCOCC3)c3c(-c4ccccc4Cn4cc(CCNC(=O)c5cccc(Br)c5)c5ccccc54)cccc23)cc(C)c1Cl: 7.06
- Cc1cc(OCCCc2c(C(=O)O)n(CCN3CCOCC3)c3c(-c4ccccc4Cn4cc(CCNC(=O)c5c(C)cccc5F)c5ccccc54)cccc23)cc(C)c1Cl: 7.37
- Cc1nn(C)c(COc2ccc(N3CCN(S(=O)(=O)N(C)C)CC3)cc2)c1-c1cccc2c(CCCOc3cccc4ccccc34)c(C(=O)O)n(CCN3CCOCC3)c12: 7.92
